target: Transient receptor potential cation channel subfamily M member 8 (Homo sapiens, UniProt Q7Z2W7); assay: Potency index, ratio of WS-3 EC50 to compound EC50 for human TRPM8 receptor
Sequence (Q7Z2W7 whole entry, looked up): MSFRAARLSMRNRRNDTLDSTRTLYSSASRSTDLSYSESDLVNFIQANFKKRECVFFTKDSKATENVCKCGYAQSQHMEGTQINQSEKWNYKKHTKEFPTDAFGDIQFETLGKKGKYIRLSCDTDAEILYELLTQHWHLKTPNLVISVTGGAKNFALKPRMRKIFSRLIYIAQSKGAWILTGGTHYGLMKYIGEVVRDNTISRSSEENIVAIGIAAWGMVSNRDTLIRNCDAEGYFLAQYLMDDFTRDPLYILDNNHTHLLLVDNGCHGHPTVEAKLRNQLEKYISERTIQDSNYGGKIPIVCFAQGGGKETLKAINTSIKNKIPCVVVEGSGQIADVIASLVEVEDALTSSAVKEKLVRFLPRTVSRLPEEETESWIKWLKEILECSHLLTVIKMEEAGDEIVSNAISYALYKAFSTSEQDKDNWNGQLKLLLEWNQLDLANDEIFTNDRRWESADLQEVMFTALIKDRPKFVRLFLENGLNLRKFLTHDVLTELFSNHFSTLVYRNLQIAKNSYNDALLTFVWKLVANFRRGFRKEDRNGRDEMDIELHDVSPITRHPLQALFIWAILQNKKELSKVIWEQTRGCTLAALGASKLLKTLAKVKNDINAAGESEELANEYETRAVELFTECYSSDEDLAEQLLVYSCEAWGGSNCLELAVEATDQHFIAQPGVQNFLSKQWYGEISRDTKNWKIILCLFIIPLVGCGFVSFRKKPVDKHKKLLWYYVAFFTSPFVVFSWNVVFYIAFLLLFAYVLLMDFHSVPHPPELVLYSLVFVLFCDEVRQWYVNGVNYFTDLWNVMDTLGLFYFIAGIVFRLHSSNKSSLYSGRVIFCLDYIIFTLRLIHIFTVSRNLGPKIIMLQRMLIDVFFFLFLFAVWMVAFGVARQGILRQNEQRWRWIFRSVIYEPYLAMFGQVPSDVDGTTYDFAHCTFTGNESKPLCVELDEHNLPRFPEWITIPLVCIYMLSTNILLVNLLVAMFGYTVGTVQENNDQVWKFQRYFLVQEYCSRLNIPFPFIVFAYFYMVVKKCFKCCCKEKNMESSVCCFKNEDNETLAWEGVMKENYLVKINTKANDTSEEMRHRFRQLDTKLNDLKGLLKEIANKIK
READOUT NAME: Ratio EC50

1: CCN(Cc1cccs1)C(=O)c1cc2cc(C)ccc2s1
2: CCN(Cc1nccs1)C(=O)COc1ccc(C)cc1
// pick larger Ratio EC50 from pair: 1 vs 2 Write down the label attached to your selection.
1

a: Cc1ccc(OCC(=O)N(Cc2cccs2)c2cccnc2)cc1
b: Cc1ccc(OCC(=O)N(Cc2cccs2)c2ccon2)cc1
In terms of reported Ratio EC50, does a or b have the smaller number? Identify your pick by its label.
a
(a: 24, b: 3440)

====

molecular target: Transient receptor potential cation channel subfamily M member 8 (Homo sapiens, UniProt Q7Z2W7); assay: Agonist activity at human TRPM8 expressed in HEK293 cells assessed as increase in intracellular calcium level after 15 mins by Fluo-3-AM dye-based fluorescence assay; assay type: cell-based; conditions: hek293
Sequence (Q7Z2W7 whole entry): as the sequence (Q7Z2W7 whole entry, looked up) above
READOUT NAME: EC50

Check out these entries, answers already filled in.
{"columns": ["COMPOUND", "EC50"],
 "data": [
  ["CCN(Cc1cc[nH]n1)C(=O)COc1ccc(C)cc1", "Not Active"],
  ["CCN(Cc1cn[nH]c1)C(=O)COc1ccc(C)cc1", "Active"],
  ["CCN(Cc1cccs1)C(=O)c1cc2cc(C)ccc2n1C", "Not Active"],
  ["CCN(C(=O)COc1ccc(C)cc1)C(C)c1cccs1 (stereo unspecified)", "Not Active"],
  ["CCN(Cc1ccncc1)C(=O)COc1ccc(C)cc1", "Not Active"]
]}

Now for a further compound.
Tell me its EC50 given CCN1C(=O)C(Oc2ccc(C)cc2)C1c1cccs1 (stereo unspecified) as the entry.
Active

====

molecular target: Transient receptor potential cation channel subfamily M member 8 (Homo sapiens); test: Agonist activity at human TRPM8 expressed in HEK293 cells assessed as increase in intracellular calcium level after 15 mins by Fluo-3-AM dye-based fluorescence assay; format: cell-based; settings: read-out: EC50
pEC50: −log10 of the molar value.
READOUT NAME: pEC50

Here are 6 molecules together with their reported answers.
{"columns": ["MOLECULE", "pEC50"],
 "data": [
  ["CCN(Cc1ccccc1)C(=O)COc1ccc(C)cc1", 5.73],
  ["CCN(Cc1ccccn1)C(=O)COc1ccc(C)cc1", 4.80],
  ["Cc1ccc(OCC(=O)N(Cc2cccs2)c2ncco2)cc1", 9.52],
  ["CCN(Cc1ccsc1)C(=O)COc1ccc(C)cc1", 7.06],
  ["CCN(Cc1cccs1)C(=O)COc1ccc(OC)cc1", 6.92],
  ["CCN(Cc1cccs1)C(=O)C(C)Oc1ccc(C)cc1 (configuration not stated)", 6.05]
]}

a: CCN(Cc1cccs1)C(=O)COc1ccc(C#N)cc1
b: Cc1ccc(OCC(=O)NCc2cccs2)cc1
c: O=C(/C=C/c1ccc2c(c1)OCO2)N(Cc1cccs1)c1ccn[nH]1
Reorder: pEC50, max to min. Give me the labels in the order the question wants.
c, a, b

a: COCCN(Cc1cccs1)C(=O)COc1ccc(C)cc1
b: Cc1ccc(OCC(=O)N(Cc2cccs2)c2ccn[nH]2)cc1
Compare a and b by numeric pEC50 and name the larger one. Pick one; state its label.
b

====

test: Stability of the compound in pH 7.1 phosphoric acid assessed as compound remaining after heating at 100 degC for 24 hrs; format: physicochemical; details: read-out: Stability
READOUT NAME: remaining at 24 h (%)

1: Cc1ccc(OCC(=O)N(Cc2cccs2)c2ccon2)cc1
2: Cc1ccc(OCC(=O)N(Cc2cccs2)c2ncco2)cc1
Hi, I'm comparing two records. Which one has the lower remaining at 24 h, 1 or 2 ? Write down the label attached to your selection.
2
(2: 0.1%, 1: 0.5%)

====

assay: Permeability of the compound assessed as drug transport by PAMPA; format: physicochemical
READOUT NAME: Drug transport (%)

{"columns": ["STRUCTURE", "READING"],
 "data": [
  ["O=C(COc1ccc2c(c1)CCC2)N(Cc1cccs1)c1ccn[nH]1", 5],
  ["CCN(Cc1cccs1)C(=O)COc1ccc2c(c1)COC2", 33],
  ["CCN(Cc1cccs1)C(=O)c1cc2cc(C)ccc2o1", 2],
  ["Cc1ccc(OCC(=O)N(Cc2cccs2)c2ccn[nH]2)cc1", 10]
]}

I: CCN(Cc1cccs1)C(=O)c1cc2cc(OC)ccc2o1
II: CCN(Cc1cccs1)C(=O)COc1ccc2c(c1)CCC2
III: CCN(Cc1cccs1)C(=O)COc1ccc(C)cc1
IV: Cc1ccc(/C=C/C(=O)N(Cc2cccs2)c2ccn[nH]2)cc1
Ranking field: Drug transport; order: falling. Return the labels ranked in the requested order, please.
III, IV, II, I
(III: 12%, IV: 5%, II: 3%, I: 1%)

====

target: UniProt:Q7Z2W7; assay: Agonist activity at human TRPM8 expressed in HEK293 cells assessed as increase in intracellular calcium level after 15 mins by Fluo-3-AM dye-based fluorescence assay; assay type: cell-based; conditions: read-out: EC50
pEC50: −log10 of the molar value.
READOUT NAME: pEC50

{"columns": ["STRUCTURE", "pEC50"],
 "data": [
  ["O=C(COc1ccc2c(c1)CCC2)N(Cc1cccs1)c1ccn[nH]1", 12.00],
  ["Cc1ccc(OCC(=O)N(Cc2cccs2)C2COC2)cc1", 4.64],
  ["Cc1ccc(OCC(=O)N(Cc2cccs2)c2ccccn2)cc1", 6.70],
  ["CCc1ccc(OCC(=O)N(CC)Cc2cccs2)cc1", 7.17],
  ["CCN(Cc1cccs1)C(=O)/C=C/c1ccc(C)cc1", 8.70],
  ["CCN(Cc1cccs1)C(=O)COc1ccc(C)cc1O", 8.10],
  ["Cc1ccc(OCC(=O)N(Cc2cccs2)c2c[nH]nc2C)cc1", 9.40],
  ["COc1ccc(OCC(=O)N(Cc2cccs2)c2cc[nH]n2)cc1", 8.43],
  ["Cc1ccc(OCC(=O)N(Cc2cccs2)c2cnn(C)c2)cc1", 4.20],
  ["CCN(Cc1cccs1)C(=O)C(C)(C)Oc1ccc(C)cc1", 4.96]
]}

1: Cc1ccc(OCC(=O)N(Cc2cccs2)c2ccnn2C)cc1
2: Cc1ccc(OCC(=O)N(Cc2cccs2)c2c(C)n[nH]c2C)cc1
Of the pair 1 and 2 , name the member with the lesser recorded pEC50. Provide the label of your selected option as the answer.
1
(1: 6.37, 2: 9.52)

====

target: Transient receptor potential cation channel subfamily M member 8 (Homo sapiens, UniProt Q7Z2W7); assay: Potency index, ratio of WS-3 EC50 to compound EC50 for human TRPM8 receptor
READOUT NAME: Ratio EC50

Consider the worked cases shown below.
{"columns": ["STRUCTURE", "Ratio EC50"],
 "data": [
  ["CCN(Cc1cncs1)C(=O)COc1ccc(C)cc1", 4],
  ["Cc1ccc(OCC(=O)N(Cc2cccs2)c2cnccn2)cc1", 3],
  ["Cc1ccc(OCC(=O)N(Cc2cccs2)c2ccnn2C)cc1", 14],
  ["Cc1ccc(OCC(=O)N(Cc2cccs2)CC(C)C)cc1", 3],
  ["Cc1ccc(OCC(=O)N(Cc2cccs2)c2c[nH]nc2C)cc1", 10700]
]}

A: Cc1ccc(OCC(=O)N(Cc2cccs2)c2ccncc2)cc1
B: Cc1ccc(OCC(=O)N(Cc2cccs2)c2ccccc2)cc1
Field: entry with larger Ratio EC50 (options A / B ). Identify your pick by its label.
B

====

target: Transient receptor potential cation channel subfamily M member 8 (Homo sapiens, UniProt Q7Z2W7); test: Potency index, ratio of WS-3 EC50 to compound EC50 for human TRPM8 receptor
READOUT NAME: Ratio EC50

a: Cc1ccc(OCC(=O)N(CCCO)Cc2cccs2)cc1
b: Cc1ccc(OCC(=O)NCc2cccs2)cc1
Sort a and b by Ratio EC50 descending and give the first. Please identify the chosen entry by its label.
a
(a: 1, b: 0.1)

====

biological target: UniProt:Q7Z2W7; experiment: Agonist activity at human TRPM8 expressed in HEK293 cells assessed as increase in intracellular calcium level after 15 mins by Fluo-3-AM dye-based fluorescence assay; type: cell-based; conditions: read-out: EC50
pEC50: −log10 of the molar value.
READOUT NAME: pEC50

Study these solved cases before continuing.
{"columns": ["STRUCTURE", "READING"],
 "data": [
  ["Cc1ccc(OCC(=O)N(Cc2cccs2)c2ccncc2)cc1", 7.28],
  ["Cc1ccc(OCC(=O)N(Cc2cccs2)C2CC2)cc1", 8.10],
  ["Cc1ccc(OCC(=O)N(O)Cc2cccs2)cc1", 5.10],
  ["CCN(Cc1cccs1)C(=O)c1cc2cc(C)ccc2s1", 5.80],
  ["CCN(Cc1cccs1)C(=O)COc1ccccc1C", 6.72]
]}

P: CCN(Cc1cccs1)C(=O)c1cc2cc(C)ccc2[nH]1
Q: O=C(COc1ccc2c(c1)OCO2)N(Cc1cccs1)c1ccn[nH]1
R: Cc1ccc(OCC(=O)N(Cc2cccs2)C(C)(C)C)cc1
Please put the entries in order of rising pEC50. Output spec: labels arranged per the requested ranking.
R, P, Q
(R: 4.96, P: 5.70, Q: 9.22)
